Source: PubChem BioAssay (NCI)

Answer each item with its documented TGI.
Tested on: SNB-19 CNS
Assay: NCI tumour cell line growth inhibition, 48 h

Examples with their reported TGI follow.
MOLECULE	READOUT_LABEL	RESULT
O=C(NCCCCCCCCCCCCNC(=O)Nc1cccc2ccccc12)Nc1cccc2ccccc12	TGI	30.1 µM
Cc1ccc([S@](=O)c2occc2C=O)cc1	TGI	18 µM
O=[N+]([O-])c1ccc(-n2nnc(C3=NCCN3)c2-c2ccccc2)cc1	TGI	> 100 µM

Please state, for each entry, its recorded TGI.
1. NC(=O)N/N=C1/CCC(O)CC1CC(=O)O (stereo unspecified)
2. COc1cc2c[n+](C)c3c4cc(OC)c(OC(C)C)cc4ccc3c2cc1OC

["> 100 µM", "> 100 µM"]

What measured TGI is associated with Cc1ccccc1C1OC(=O)c2ccc3ccccc3c21 (stereo unspecified) on SNB-19 CNS? > 91.5 µM
